assay-text: duplex melting temperature (HRM, EvaGreen); higher = more stable duplex
measurement-setup: duplex concentration 7.5 µM; backbone: PO-PO (both strands phosphodiester DNA)
measurement-name: duplex melting temperature
Answer with the number, then the unit.

Consider the following illustrative entries.
1) GAACTGCCACTACCAA | 68.6 °C
2) CGGTGCTTTTGGTAGC | 69.4 °C

Continue with the sequence presented below.
Input: Looking for the measured duplex melting temperature of `TCTCGCGGTTCCATTA` , can you help?
Output: 70.2 °C

----------
assay-text: duplex formation enthalpy ΔH (Van't Hoff fit of HRM Tm); higher = less exothermic duplex formation
measurement-setup: temperature for dG: 50 °C; NaCl: 500 mM (unadjusted); backbone: PO-PO (both strands phosphodiester DNA)
Rule: duplex formation enthalpy ΔH under -80 kcal/mol gives no (0), otherwise yes (1).

1) CGTGCAGCACTACTTG | yes (1)
2) GAGCAGAAGGGGTTGT | yes (1)
3) TTCTACATCCATCTTAATCCCA | no (0)

Input: # bool: duplex formation enthalpy ΔH of `GTGAGCAGAAGGGGTT` >= -80 kcal/mol
Output: yes (1)

Input: How about `AGAGCGCCCTGCTGCC` ?
Output: no (0)

----------
For each of the sequences below, state its duplex formation enthalpy ΔH.
assay-text: duplex formation enthalpy ΔH (Van't Hoff fit of HRM Tm); higher = less exothermic duplex formation
measurement-setup: temperature for dG: 50 °C; NaCl: 500 mM (unadjusted); backbone: PS-PS (both strands fully phosphorothioate)
Give bare numbers, in kcal/mol.

Consider the following illustrative entries.
1) GCAGGAGCCGCGACCTG | -81.2
2) CGACATGTATGGCACAG | -79.1
3) GAACCGTTGATGATCTC | -70.3
4) CTCAGAGTAGAGCCGA | -68.5
5) CCGCTCAGAGTAGAGA | -68.9

Quick one: give me duplex formation enthalpy ΔH for each item below, same order please.
1. ACGGGTCGTTCCGTG
2. CCACTAGCGGCGCCGTT

Output:
1: -70.7; 2: -79.8

----------
For each of the sequences below, state its duplex melting temperature.
assay-text: duplex melting temperature (HRM, EvaGreen); higher = more stable duplex
measurement-setup: duplex concentration 5 µM; backbone: PO-PO (both strands phosphodiester DNA)
Answers are plain numbers, in °C.

Consider the following illustrative entries.
1. CCCAGGCCTCGGATTTA | 73.1
2. TTTGGGTTAGTAAGAAGGCAGCAGTTGGGC | 82.8
3. CTCAGAGTAGAGCCGA | 68.2

Quick one: give me duplex melting temperature for each item below, same order please.
1. ATAACTTACTCTCGCCT
2. GCTGAACTAACCACCA
3. GTGAGCAGAAGGGGTT
4. CTTTTGTGCGGGTAGC

Output:
67.1
67
68.8
68.1

Quick one: give me duplex melting temperature for each item below, same order please.
1. TTCGCGGTCTCCATTA
2. GATTGTATCATCGACATCACACTACC
3. CCGCTCAGAGTAGAGA
4. GCAGGAGCCGCGACCTG
5. GTGAAACAATGCTGTAG
6. TCTACACCGCGA

Output:
69
76
67.5
79.8
65.1
62.5

Quick one: give me duplex melting temperature for each item below, same order please.
1. TGTAAGACTTCTGCCAGAAA
2. CAAACTTAGTAATCACGCCCAGCAACCA
3. CTACCAGCGGCGCCGTT
4. GAGGCAGCCGCGACCTG
5. ACTCGCTCTACCTTAAT
6. GATCTCTCTATCATCGTTTATTGGGTAT
7. GTCATTGTGCTTTTGC

Output:
1: 71.8; 2: 80.6; 3: 80.5; 4: 81.4; 5: 65.2; 6: 74.8; 7: 65.3

Quick one: give me duplex melting temperature for each item below, same order please.
1. TGCCATGTTGAAAACC
2. GGTGGCGTTCTT
3. GATGCCGCAGCGACCTG
4. AGCTGAGCCTGCCGCC
5. AACGAATGTCAGCAATT
6. CGATTTTGTCAAGCCT
7. AGCACGGTGGTACAACA
8. GCTGTGAAACAATGTAG

Output:
65.5
63
78.7
78.6
67
66.5
69.8
64.5

Quick one: give me duplex melting temperature for each item below, same order please.
1. CGGCGCGCTG
2. GCGGTTGGTGGCCAAC
3. TTGTAGTTGACGTTTGTGATTTAGTGAATT

Output:
1. 67.7
2. 74.7
3. 77.6

Ref: the supplement of paper PMC9116672
